Parameter 'readout' = IC50; parameter 'system' = Sodium-dependent dopamine transporter (Homo sapiens, UniProt Q01959).
Sequence (Q01959 whole entry): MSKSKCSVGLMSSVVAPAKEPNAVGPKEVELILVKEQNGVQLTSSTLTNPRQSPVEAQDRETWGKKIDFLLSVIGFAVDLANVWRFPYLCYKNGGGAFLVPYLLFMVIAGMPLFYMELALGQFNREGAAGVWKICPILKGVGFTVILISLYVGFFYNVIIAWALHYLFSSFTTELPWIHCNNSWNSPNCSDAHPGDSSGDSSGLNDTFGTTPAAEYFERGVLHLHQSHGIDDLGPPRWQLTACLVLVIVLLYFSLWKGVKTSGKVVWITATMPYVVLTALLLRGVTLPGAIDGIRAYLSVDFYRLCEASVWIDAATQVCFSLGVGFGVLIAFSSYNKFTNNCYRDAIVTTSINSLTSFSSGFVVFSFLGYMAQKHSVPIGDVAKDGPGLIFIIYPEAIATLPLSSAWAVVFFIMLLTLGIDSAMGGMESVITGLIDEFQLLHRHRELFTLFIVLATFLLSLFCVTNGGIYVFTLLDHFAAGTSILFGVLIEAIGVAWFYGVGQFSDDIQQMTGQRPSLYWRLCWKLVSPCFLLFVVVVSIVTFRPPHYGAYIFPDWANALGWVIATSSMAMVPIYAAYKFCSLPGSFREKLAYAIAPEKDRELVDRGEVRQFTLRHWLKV

- compound: "N#Cc1ccc2[nH]cc(CCCCN3CCN(c4ccc5oc(C(N)=O)cc5c4)CC3)c2c1 [VILAZODONE]"
  IC50: "295 nM"
- compound: "N#Cc1ccc2[nH]cc(CCCCN3CCN(c4ccc(C(=O)CCC5CCN(Cc6ccccc6)CC5)cc4)CC3)c2c1"
  IC50: "1040 nM"

---

runDescription: in vitro
details: PAMPA
Description: Permeability of compound by PAMPA-BBB assay
Below, each entry is listed alongside its reported Papp.

- molecule: "N#Cc1ccc2[nH]cc(CCCN3CCN(c4ccc5c(c4)CC(CC4CCN(Cc6ccccc6)CC4)C5=O)CC3)c2c1 (stereo unspecified)"
  Papp: "35.5 nm/s"
- molecule: "N#Cc1ccc2[nH]cc(CCN3CCN(c4ccc(C(=O)CCC5CCN(Cc6cc[nH]c6)CC5)cc4)CC3)c2c1"
  Papp: "31.5 nm/s"
- molecule: "N#Cc1ccc2[nH]cc(CCCCN3CCN(c4ccc(C(=O)CCC5CCN(Cc6cc[nH]c6)CC5)cc4)CC3)c2c1"
  Papp: "47.7 nm/s"
- molecule: "N#Cc1ccc2[nH]cc(CCN3CCN(c4ccc5c(c4)CC(CC4CCN(Cc6ccccc6)CC4)C5=O)CC3)c2c1 (stereo unspecified)"
  Papp: "41.6 nm/s"
- molecule: "Cc1ccc2[nH]cc(CCCCN3CCN(c4ccc(C(=O)CCC5CCN(Cc6ccccc6)CC5)cc4)CC3)c2c1"
  Papp: "25 nm/s"
- molecule: "N#Cc1ccc2[nH]cc(CN3CCN(c4ccc(C(=O)CCC5CCN(Cc6cc[nH]c6)CC5)cc4)CC3)c2c1"
  Papp: "31.7 nm/s"
- molecule: "N#Cc1ccc2[nH]cc(CCCCN3CCN(c4ccc(C(=O)CCC5CCN(Cc6cccnc6)CC5)cc4)CC3)c2c1"
  Papp: "44.3 nm/s"
- molecule: "N#Cc1ccc2[nH]cc(CCCCN3CCN(c4ccc5oc(C(N)=O)cc5c4)CC3)c2c1"
  Papp: "108 nm/s"
- molecule: "N#Cc1ccc2[nH]cc(CN3CCN(c4ccc(C(=O)CCC5CCN(Cc6ccsc6)CC5)cc4)CC3)c2c1"
  Papp: "52.5 nm/s"
- molecule: "N#Cc1ccc2[nH]cc(CCCCN3CCN(c4ccc(C(=O)CCC5CCN(Cc6ccoc6)CC5)cc4)CC3)c2c1"
  Papp: "46.8 nm/s"
- molecule: "N#Cc1ccc2[nH]cc(CN3CCN(c4ccc5c(c4)CC(CC4CCN(Cc6ccccc6)CC4)C5=O)CC3)c2c1 (stereo unspecified)"
  Papp: "36.1 nm/s"
- molecule: "N#Cc1ccc2[nH]cc(CCCCN3CCN(c4ccc(C(=O)CCC5CCN(Cc6ccsc6)CC5)cc4)CC3)c2c1"
  Papp: "46.2 nm/s"
- molecule: "N#Cc1ccc2[nH]cc(CCN3CCN(c4ccc(C(=O)CCC5CCN(Cc6cccnc6)CC5)cc4)CC3)c2c1"
  Papp: "25.8 nm/s"
- molecule: "N#Cc1ccc2[nH]cc(CCCN3CCN(c4ccc(C(=O)CCC5CCN(Cc6ccoc6)CC5)cc4)CC3)c2c1"
  Papp: "51.7 nm/s"
- molecule: "N#Cc1ccc2[nH]cc(CN3CCN(c4ccc(C(=O)CCC5CCN(Cc6ccccc6)CC5)cc4)CC3)c2c1"
  Papp: "36.7 nm/s"
- molecule: "N#Cc1ccc2[nH]cc(CCN3CCN(c4ccc(C(=O)CCC5CCN(Cc6ccsc6)CC5)cc4)CC3)c2c1"
  Papp: "47.7 nm/s"
